target: hP2X3 (human Purinergic P2X receptors subtype 3), clone A (Homo sapiens, UniProt P56373); assay: hP2X3 FLIPR calcium (Fluo-4) antagonist assay, clone A; conditions: Human P2X3 FLIPR Clone A Mean IC50 (nM), RLE cells expressing hP2X3 clone A (AB016608); agonist 500 nM α,β-methylene-ATP
Sequence (P56373 whole entry): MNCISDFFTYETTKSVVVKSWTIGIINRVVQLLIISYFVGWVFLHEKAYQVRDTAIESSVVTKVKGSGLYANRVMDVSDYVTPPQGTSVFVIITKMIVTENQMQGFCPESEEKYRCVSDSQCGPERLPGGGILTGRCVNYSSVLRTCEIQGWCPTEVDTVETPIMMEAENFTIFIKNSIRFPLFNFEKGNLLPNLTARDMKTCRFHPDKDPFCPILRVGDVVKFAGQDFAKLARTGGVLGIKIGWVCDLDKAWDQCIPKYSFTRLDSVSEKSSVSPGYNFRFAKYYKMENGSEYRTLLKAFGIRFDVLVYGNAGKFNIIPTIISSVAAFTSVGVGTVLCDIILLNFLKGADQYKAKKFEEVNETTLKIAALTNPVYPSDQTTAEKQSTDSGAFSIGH
Measured Parameter: IC50 (nM)
Form entry: value (nM) — number only.

Below: 10 molecules and their reported IC50.
Molecule	IC50, nM
CC(=O)N1CCN(c2nc(N[C@H](C)c3ccc(C(F)(F)F)cc3F)c3c(n2)C(=O)N(C(C)C)C3)CC1	138
CC(=O)N1CCN(c2nc3c(c(N4CCCC4c4ccc(Cl)c(Cl)c4)n2)CN(C(C)C)C3=O)CC1 (stereo not drawn)	322
CC(=O)N1CCN(c2nc3c(c(N(C)Cc4ccc5ccn(C)c5c4)n2)CN(C(C)C)C3=O)CC1	5760
CCOc1ccc(CC(C)(C)Nc2nc(N3CCN(C(C)=O)CC3)nc3c2CN(C(C)C)C3=O)cc1	1230
CCOc1ccc([C@H](Nc2nc(N3CCN(C(C)=O)CC3)nc3c2CN(C(C)C)C3=O)C2CC2)cc1	79.7
CC(=O)N1CCN(c2nc3c(c(N4CCCC4c4ccc(F)cc4)n2)CN(C(C)C)C3=O)CC1 (stereo not drawn)	4950
CCN1CCN(c2nc3c(c(N(C)Cc4cc5ccccc5cn4)n2)CN(C(C)C)C3=O)CC1=O	356
CC(=O)N1CCN(c2nc3c(c(N4CCCC4c4ccc(C)cc4)n2)CN(C(C)C)C3=O)CC1 (stereo not drawn)	1190
CC(=O)N1CCN(c2nc3c(c(N(C)Cc4cc5ccc(C)cc5cn4)n2)CN(C(C)C)C3=O)CC1	61.1
CC(C)N1Cc2c(nc(N3CCN(C)C(=O)C3)nc2N(C)Cc2cc3ccccc3cn2)C1=O	501

Exam item: Given CCC(C)N1Cc2c(nc(N3CCN(C(C)=O)CC3)nc2N(CC)Cc2cc3ccccc3cn2)C1=O (single isomer, unassigned) [Example 317] , state its recorded IC50.
Marked response: 40

Exam item: What do we get for `CC(=O)N1CCN(c2nc(N[C@H](C)c3cccc(C(F)(F)F)c3F)c3c(n2)C(=O)N(C(C)C)C3)CC1` ?
Marked response: 117

Exam item: Further, for `CC(=O)N1CCN(c2nc3c(c(N(C)Cc4cc5cc(Cl)ccc5cn4)n2)CN(C(C)C)C3=O)CC1` ?
Marked response: 2720

Exam item: Another molecule to look at: `CCOc1ccc([C@@H](C)Nc2nc(N3CCN(C(C)=O)CC3)nc3c2CN(C(C)C)C3=O)c(F)c1`
Marked response: 50.4

Exam item: Another: `CC(=O)N1CCN(c2nc(N[C@H](C)c3cc(C(F)(F)F)ccc3F)c3c(n2)C(=O)N(C(C)C)C3)CC1`
Marked response: 199
